methodDescription: Cell cycle arrest in human HeLaS3 cells assessed as accumulation at G1 phase at 1 uM after 12 hrs by flow cytometry
Format: functional, cell-based
testContext: HeLa S3
valueKind: Activity (%)

INSERT INTO measurements (querysmiles, experimentalvalue) VALUES
  ('c1ccc2c(c1)[nH]c1cnc(NCC3CCCCC3)cc12', 58.4),
  ('C[n+]1cc2[nH]c3ccccc3c2cc1NCc1ccccc1', 7.8),
  ('Oc1cccc(CNc2cc3c(cn2)[nH]c2ccccc23)c1', 48.8),
  ('c1ccc(CNc2cc3c(cn2)[nH]c2ccccc23)cc1', 2.9);

###

methodDescription: Cell cycle arrest in human HeLaS3 cells assessed as accumulation at S phase at 1 uM after 24 hrs by flow cytometry
Format: functional, cell-based
testContext: HeLa S3
valueKind: Activity (%)

INSERT INTO assay_data (querysmiles, experimentalvalue) VALUES
  ('c1ccc(CNc2cc3c(cn2)[nH]c2ccccc23)cc1', 2.6),
  ('c1ccc2c(c1)[nH]c1cnc(NCC3CCCCC3)cc12', 14.7),
  ('C[n+]1cc2[nH]c3ccccc3c2cc1NCc1ccccc1', 13.6),
  ('Oc1cccc(CNc2cc3c(cn2)[nH]c2ccccc23)c1', 17.4);
